# systemUnderTest: beta adrenergic receptor (guinea pig right atria) (Cavia porcellus, UniProt H0W3H1)
# Construct: guinea pig right atria and guinea pig tracheal strips mounted in a tissue bath; from tissue; host or cells: guinea pig right atria, spontaneously beating
# Sequence (H0W3H1 1-470): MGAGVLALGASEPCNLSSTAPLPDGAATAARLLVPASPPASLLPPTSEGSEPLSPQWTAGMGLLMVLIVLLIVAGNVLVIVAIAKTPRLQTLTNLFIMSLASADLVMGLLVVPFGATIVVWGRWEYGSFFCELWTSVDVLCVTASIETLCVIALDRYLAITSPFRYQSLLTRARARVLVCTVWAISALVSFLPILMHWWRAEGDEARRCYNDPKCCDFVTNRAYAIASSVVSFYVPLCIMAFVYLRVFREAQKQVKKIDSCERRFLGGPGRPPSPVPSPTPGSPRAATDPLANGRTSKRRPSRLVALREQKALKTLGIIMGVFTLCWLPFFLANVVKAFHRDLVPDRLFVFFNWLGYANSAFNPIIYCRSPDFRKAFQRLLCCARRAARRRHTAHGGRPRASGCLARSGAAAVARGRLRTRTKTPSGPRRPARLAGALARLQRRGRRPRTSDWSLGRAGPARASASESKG
# protocolDetails: Beta-blocking activity in vitro, guinea pig right atria (blockade of isoproterenol rate response)
# testConditions: Table I; guinea pig right atria, isoproterenol agonist, 60-minute incubation, 37° C.; read-out: PA2 Rt. Atria (converted)
Where a name gives a salt, the structure may show the parent alone.
Strictly below 20 nM in Kb: MET. Otherwise: NOT MET.

Check out these entries, answers already filled in.
compound | classLabel
CC(C)C(=O)NCCNCC(O)COC(=O)c1ccccc1F (stereo not drawn) [Example I, Hydrochloride] | NOT MET
CC(C)(CNC(=O)Cc1ccccc1)NCC(O)COC(=O)c1ccccc1F (stereo not drawn) [Example VII, Hydrochloride] | NOT MET
CNC(=O)NCC(C)(C)NCC(O)COC(=O)c1ccccc1F (stereo not drawn) | NOT MET
CC(=O)NCC(C)NCC(O)COC(=O)c1ccccc1F (stereo not drawn) | NOT MET
CC(C)(CNC(=O)N1CCOCC1)NCC(O)COC(=O)c1cc(O)cc(O)c1 (stereo not drawn) [XXXVIII, Oxalate Hemihydrate] | MET
CC(=O)NCC(C)(C)NCC(O)COC(=O)c1ccccc1F (stereo not drawn) | NOT MET
CC(C)(CNC(=O)N1CCOCC1)NCC(O)COC(=O)c1ccccc1 (stereo not drawn) [XXXIII, Oxalate Hemihydrate] | MET

From here, focus on the item given below.
Lookup: Dear colleague, could you confirm whether Kb of CC(C)(CNC(=O)N1CCOCC1)NCC(O)COC(=O)c1ccc(O)cc1 (stereo not drawn) falls below 20 nM? Thanks.
Found: MET

---

# Test system: beta adrenergic receptor (heart rate response to isoproterenol)
# protocolDetails: Duration and potency of beta-blocking action in vivo, 3-hour infusion in pentobarbital-anesthetized dogs
# Design: species or system dog
# testConditions: Table II; after termination of 3-hour infusion
Counter-ions that a name gives are not always drawn.
valueKind: Recovery Time 80% (min)
Write the value in min as a bare number.

molecule | systemUnderTest | assayResult
CC(=O)NCC(C)(C)NCC(O)COC(=O)c1ccccc1F (stereo not shown) | beta adrenergic receptor (heart rate response to isoproterenol) | 35
CCOC(=O)NCC(C)(C)NCC(O)COC(=O)c1ccccc1F (stereo not shown) [IX, Hydrochloride] | beta adrenergic receptor (heart rate response to isoproterenol) | 8
CC(C)(CNC(N)=O)NCC(O)COC(=O)c1ccccc1F (stereo not shown) | beta adrenergic receptor (heart rate response to isoproterenol) | 21
CC(C)(CNC(=O)Cc1ccccc1)NCC(O)COC(=O)c1ccccc1F (stereo not shown) [Example VII, Hydrochloride] | beta adrenergic receptor (heart rate response to isoproterenol) | 19
CC(C)C(=O)NCC(C)(C)NCC(O)COC(=O)c1ccccc1F (stereo not shown) [Example V, Oxalate Monohydrate] | beta adrenergic receptor (heart rate response to isoproterenol) | 22

Now look at this one.
Lookup: Fill in the blank: the reported Recovery Time 80% of CC(C)(CNC(=O)C1CCCCC1)NCC(O)COC(=O)c1ccccc1F (stereo not shown) is ____.
Found: 12

---

Listing of recorded half-life by entry.
# protocolDetails: Half-lives of beta blockers in dog whole blood (procedure D)
# Format: in vitro ADME
# testConditions: 37° C., read-out: T1/2 dog blood
Structures can show the parent of a compound that is named as a salt.
Answer with a number only, understood to be in min.

Lookup: What value of measured half-life is listed for CC(C)(CNC(=O)N1CCOCC1)NCC(O)COC(=O)c1ccccc1F (stereo not shown) [Example II, Hydrochloride] ?
Found: 15

Lookup: Requested field: half-life. Item: CC(=O)NCC(C)(C)NCC(O)COC(=O)c1ccccc1F (stereo not shown)
Found: 7.5

Lookup: Look up half-life: CC(C)C(=O)NCC(C)(C)NCC(O)COC(=O)c1ccccc1F (stereo not shown) [Example V, Oxalate Monohydrate]
Found: 20

Lookup: // query half-life value for entry CC(C)(CNS(=O)(=O)c1ccccc1)NCC(O)COC(=O)c1ccccc1F (stereo not shown)
Found: 15
